Where do these numbers come from? They come from PubChem BioAssay (NCI).

Could you please report measured TGI for the items listed next?
Test system: NCI/ADR-RES ovarian
Test: NCI tumour cell line growth inhibition, 48 h

Take a look at these entries with their results.
- COMPOUND: "Nc1ccc(Oc2ccc(C34CC5CC6C3CC3CC4C(C5)C6(c4ccc(Oc5ccc(N)c(O)c5)cc4)C3)cc2)cc1O"
  MEASURED: "> 92.8 µM"
- COMPOUND: "C/C(=N\\N=C(N)N)C(CN(C)C)C(c1ccccc1)c1c(O)c2ccccc2oc1=O (stereo not given)"
  MEASURED: "> 100 µM"
- COMPOUND: "CC1CCc2sc3[nH]c(=S)n(-c4ccccc4)c(=O)c3c2C1 (stereo not given)"
  MEASURED: "> 100 µM"

Batch lookup, TGI per entry.
1. O=C1CCCC2=C1CC1=C(CCCC1=O)N2c1ccccc1
2. CC(C)(C)[C@H]1CCC2(OCCO2)[C@](O)(CCCO)C1

Result:
> 100 µM
> 100 µM
